Reported values of TGI for individual entries
- Test system: A549 NSCLC
- protocol text: NCI tumour cell line growth inhibition, 48 h

{"compound": "CC1OC=CC(=O)C1O (stereo unspecified)", "TGI": "> 100 µM"}
{"compound": "COc1cc(S(=O)(=O)N/N=C/c2cc(Br)c(O)c(OC)c2)c(OC)cc1NC(C)=O", "TGI": "> 100 µM"}
{"compound": "COc1cccc(C2CC(=O)c3cccn32)c1 (stereo unspecified)", "TGI": "> 100 µM"}
{"compound": "CN/N=C(\\C(=O)Nc1ccc([N+](=O)[O-])cc1[N+](=O)[O-])C1NC(=O)NC1=O (stereo unspecified)", "TGI": "> 100 µM"}
{"compound": "CCOC(=O)NC(=O)c1cn(C2OC(CO)C(O)C2O)c(=O)[nH]c1=O (stereo unspecified)", "TGI": "> 100 µM"}
{"compound": "O=c1c(-c2ccc(O)cc2)coc2cc(O)cc(O)c12", "TGI": "> 100 µM"}
{"compound": "O=c1oc2cc(OS(=O)(=O)c3ccccc3)ccc2c2c1CCCCC2", "TGI": "> 100 µM"}
{"compound": "O=C(Nc1ccccc1C(=O)Nc1nccs1)c1ccccc1", "TGI": "> 100 µM"}
{"compound": "COc1ccc(S(=O)(=O)n2c3ccccc3n3ncc(-c4nnc(C)o4)c23)cc1", "TGI": "> 100 µM"}
{"compound": "COc1cc(CC2CC(c3ccc4c(c3)OCO4)OC2=O)cc(OC)c1OC (stereo unspecified)", "TGI": "> 100 µM"}
{"compound": "C=C(C(=O)OC)[C@H]1CC/C(C)=C/CC/C(C)=C/CC[C@@]2(C)O[C@@H]2C1", "TGI": "37.4 µM"}
{"compound": "Cc1ccc(SCC(O)=C2C(=O)CCCC2=O)cc1", "TGI": "> 100 µM"}
{"compound": "Cc1cc(O)c2c(c1)C(=O)C(c1c(C)cc3c(c1O)C(=O)C1OC1C3=O)=CC2=O (stereo unspecified)", "TGI": "43.1 µM"}
{"compound": "N#CC1CCc2c(c(-c3cn[nH]c3C(F)(F)F)nc3c(F)cc4[nH]ncc4c23)C1 (stereo unspecified)", "TGI": "> 100 µM"}
{"compound": "COc1cc(CNC(=O)CCSc2nc3ccccc3c(=O)n2Cc2cc(OC)c(OC)c(OC)c2)cc(OC)c1OC", "TGI": "> 100 µM"}
{"compound": "COC(=O)[C@@H]1O[C@]12[C@@H](CO[Si](C)(C)C(C)(C)C)O[C@@H](n1cc(C)c(=O)[nH]c1=O)[C@@H]2O[Si](C)(C)C(C)(C)C", "TGI": "64 µM"}
{"compound": "CCC(=O)OC1=CN2C(=NC(c3ccc(N)cc3)=CC2c2cc(OC)c(OC)c(OC)c2)S1 (stereo unspecified)", "TGI": "26 µM"}
{"compound": "O=c1cccccc1NCCNc1cccccc1=O", "TGI": "> 100 µM"}
{"compound": "CCOC(=O)c1cc(-c2ccn(C(C)=O)c2)c(-c2cc(C)co2)[nH]1", "TGI": "> 100 µM"}
{"compound": "N[C@H](C(=O)O)[C@@H](Cl)CC(=O)O", "TGI": "> 100 µM"}
{"compound": "CC(C)N(Cc1ccccc1)S(=O)(=O)c1n[nH]c(C(C)(C)C)n1", "TGI": "> 100 µM"}
